# method: splicing luciferase reporter signal modulators, primary screen, spliceosome inhibition project, cell-based, HEK293, splice +/- reporter (AID 1101);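 note: HEK293 cells carrying a splicing-competent luciferase reporter gene; test concentration not given here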
# test context: luminescence, 24 h, higher = more signal, called active from +8 up or from −8 down
measured property: z-score

# compound, measured property, data value
data = [
    ("COc1ccc(CCNC(=O)[C@@H]2c3ccccc3C(=O)N(Cc3ccc(OC(F)(F)F)cc3)[C@H]2c2ccc(CO)cc2)cc1", "z-score", 0.0514),
    ("COC(=O)[C@@]1(Cc2ccc(F)cc2)[C@H]2c3cc(C(=O)N(C)C)n(CCc4ccccn4)c3C[C@H]2CN1C(=O)c1ccccc1", "z-score", -3.62),
    ("Cc1ccccc1C(O)C1C=CC2C(=O)N(C)C(=O)C2N1N1CCCCC1 (centres undefined)", "z-score", 1.28),
    ("COCC1=C2[C@@H](CCc3ccccc3)OB(O)C[C@@H]2[C@@H]2C(=O)N(Cc3ccccc3)C(=O)[C@@H]2C1", "z-score", 0.161),
]
